meta.source: the supplement of paper PMC10567573

B1: FEM1B (parent)
chain: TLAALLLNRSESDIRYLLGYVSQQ

Variants of: B1
ASSAY: protein stability index of a GFP-peptide fusion (GPS, HEK-293T) (PSI 1-6); higher = more stable;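 note: lentivirally expressed fusions sorted by FACS into six bins by GFP to DsRed ratio, PSI derived from sequencing read proportions per bin multiplied by bin number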
CONDITION NOTES: c terminus: a fixed tail appended
Readings of protein stability index for the listed variants

{"columns": ["RESIDUE CHANGE", "protein stability index"],
 "data": [
  ["E11L", 3.34],
  ["T1G", 2.61],
  ["E11H", 3.15],
  ["Y20T", 1.97],
  ["L18P", 2.69],
  ["D13G", 2.81],
  ["A4R", 3.48],
  ["Q24K", 4.32],
  ["A4E", 2.94],
  ["L2N", 1.89],
  ["S12L", 2.36],
  ["S10K", 2.28],
  ["L7D", 1.97],
  ["L18T", 3.06],
  ["S12N", 2.79],
  ["S10C", 2.4],
  ["R15P", 2.03],
  ["D13T", 2.88],
  ["G19F", 3.44],
  ["S10L", 3.05],
  ["A4D", 2.37],
  ["Q23F", 2.3]
]}
